Kindly state inhibition at 0.1 µM for each of the entries shown.
- experimentalSystem: A₂ receptor (Rattus norvegicus, UniProt P30543)
- Construct: from tissue; host or cells: rat corpus striatum membrane preparation
- Sequence (P30543 whole entry): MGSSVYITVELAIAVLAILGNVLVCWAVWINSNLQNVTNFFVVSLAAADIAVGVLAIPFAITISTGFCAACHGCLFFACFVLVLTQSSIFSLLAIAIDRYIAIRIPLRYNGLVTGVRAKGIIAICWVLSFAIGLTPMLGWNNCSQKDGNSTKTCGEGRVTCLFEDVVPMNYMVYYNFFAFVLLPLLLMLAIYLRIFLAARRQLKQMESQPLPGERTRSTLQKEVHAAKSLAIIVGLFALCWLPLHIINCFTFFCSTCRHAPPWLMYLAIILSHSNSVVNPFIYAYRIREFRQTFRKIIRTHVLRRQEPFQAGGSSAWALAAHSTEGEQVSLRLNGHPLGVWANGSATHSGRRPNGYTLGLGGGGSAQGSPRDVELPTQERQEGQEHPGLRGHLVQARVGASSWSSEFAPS
- protocolDetails: Adenosine A₂ receptor binding test (³H-NECA binding)
- conditionLabel: 10⁻⁷M; ³H-NECA binding, rat corpus striatum; read-out: Inhibition (%) A₂ Receptor
Number only, in %; omit the unit.

# inhibition at 0.1 µM (molecule: CCn1c(=O)c2c(nc(/C=C/c3ccc(OC)c(OC)c3Cl)n2C)n(CC)c1=O ) is 88

# inhibition at 0.1 µM (molecule: CCn1c(=O)c2c(nc(/C=C/c3ccc(OC)c(Br)c3)n2C)n(CC)c1=O ) is 74

# inhibition at 0.1 µM (molecule: CCn1c(=O)c2[nH]c(/C=C/c3ccc(OC)c(Br)c3)nc2n(CC)c1=O ) is 56

# inhibition at 0.1 µM (molecule: CCOc1ccc(/C=C/c2nc3c([nH]2)c(=O)n(CC)c(=O)n3CC)cc1 ) is 54

# inhibition at 0.1 µM (molecule: COc1ccc(/C=C/c2nc3c(c(=O)n(C)c(=O)n3C)n2C)c(OC)c1 [Compound 28, (E)-8-(2,4-Dimethoxystyryl)caffeine] ) is 46

# inhibition at 0.1 µM (molecule: Cn1c(=O)c2[nH]c(/C=C/c3ccc4c(c3)OCO4)nc2n(C)c1=O ) is 38

# inhibition at 0.1 µM (molecule: COc1cccc(/C=C/c2nc3c(c(=O)n(C)c(=O)n3C)n2C)c1OC [Compound 26, (E)-8-(2,3-Dimethoxystyryl)caffeine] ) is 27

# inhibition at 0.1 µM (molecule: CCn1c(=O)c2c(nc(/C=C/c3cc(OC)cc(OC)c3)n2C)n(CC)c1=O ) is 81

# inhibition at 0.1 µM (molecule: CCn1c(=O)c2c(nc(/C=C/c3ccc(F)c(F)c3)n2C)n(CC)c1=O ) is 63

# inhibition at 0.1 µM (molecule: CCOc1ccc(/C=C/c2nc3c(c(=O)n(CC)c(=O)n3CC)n2C)cc1 ) is 71

# inhibition at 0.1 µM (molecule: CCCOc1ccc(/C=C/c2nc3c(c(=O)n(CC)c(=O)n3CC)n2C)cc1 ) is 71

# inhibition at 0.1 µM (molecule: CCn1c(=O)c2[nH]c(/C=C/c3cc(OC)cc(OC)c3)nc2n(CC)c1=O ) is 73

# inhibition at 0.1 µM (molecule: CCCOc1ccc(/C=C/c2nc3c([nH]2)c(=O)n(CC)c(=O)n3CC)cc1 ) is 56

# inhibition at 0.1 µM (molecule: CCn1c(=O)c2[nH]c(/C=C/c3ccc(N(C)C)cc3)nc2n(CC)c1=O ) is 25

# inhibition at 0.1 µM (molecule: CCn1c(=O)c2c(nc(/C(F)=C\c3ccccc3)n2C)n(CC)c1=O ) is 30

# inhibition at 0.1 µM (molecule: CCn1c(=O)c2c(nc(/C=C/c3cccc(F)c3)n2C)n(CC)c1=O ) is 78

# inhibition at 0.1 µM (molecule: CCn1c(=O)c2c(nc(/C=C/c3cc(C)ccc3C)n2C)n(CC)c1=O ) is 86

# inhibition at 0.1 µM (molecule: CCn1c(=O)c2c(nc(/C=C/c3cccc(Cl)c3)n2C)n(CC)c1=O ) is 76

# inhibition at 0.1 µM (molecule: COc1ccc(/C=C/c2nc3c(c(=O)n(C)c(=O)n3C)n2C)c(OC)c1C ) is 83

# inhibition at 0.1 µM (molecule: COc1ccc(/C=C/c2nc3c([nH]2)c(=O)n(C)c(=O)n3C)c(OC)c1C ) is 74

# inhibition at 0.1 µM (molecule: CCn1c(=O)c2[nH]c(/C=C/c3cccc(F)c3)nc2n(CC)c1=O ) is 64

# inhibition at 0.1 µM (molecule: COc1ccc(/C=C/c2nc3c(c(=O)n(C)c(=O)n3C)n2C)c(Cl)c1OC ) is 78

# inhibition at 0.1 µM (molecule: CCn1c(=O)c2[nH]c(/C=C/c3ccc(OC)c(OC)c3Cl)nc2n(CC)c1=O ) is 73

###

- System: Rats with a 6-Hydroxydopamine-Induced Unilateral Lesion of the Nigrostriatal Dopamine Pathway
- protocolDetails: Augmentation of apomorphine-induced contralateral rotation in 6-hydroxydopamine-lesioned rats
- Assay type: in vivo
- conditionLabel: test compound 1 mg/kg orally 30 minutes before apomorphine 0.1 mg/kg s.c.; 150 minutes
endpoint: total amount of rotations (average count ± S.E.M.) test compound + apomorphine (count)
Number only, in count; omit the unit.

# total amount of rotations (average count ± S.E.M.) test compound + apomorphine (molecule: CCn1c(=O)c2c(nc(/C=C/c3ccc(OC)c(OC)c3)n2C)n(CC)c1=O ) is 1584

# total amount of rotations (average count ± S.E.M.) test compound + apomorphine (molecule: CCn1c(=O)c2c(nc(/C=C/c3ccc(OC)c(C)c3C)n2C)n(CC)c1=O ) is 1637

# total amount of rotations (average count ± S.E.M.) test compound + apomorphine (molecule: CCn1c(=O)c2c(nc(/C=C/c3cc(OC)c4c(c3)OCO4)n2C)n(CC)c1=O ) is 1490

# total amount of rotations (average count ± S.E.M.) test compound + apomorphine (molecule: CCn1c(=O)c2c(nc(/C=C/c3ccc(OC)c(C)c3OC)n2C)n(CC)c1=O ) is 1378

# total amount of rotations (average count ± S.E.M.) test compound + apomorphine (molecule: CCn1c(=O)c2c(nc(/C=C/c3ccc(OC)c(OC)c3OC)n2C)n(CC)c1=O ) is 1406

###

- experimentalSystem: A₁ receptor (Cavia porcellus, UniProt P47745)
- Construct: from tissue; host or cells: guinea pig cerebrum membrane preparation
- Sequence (P47745 whole entry): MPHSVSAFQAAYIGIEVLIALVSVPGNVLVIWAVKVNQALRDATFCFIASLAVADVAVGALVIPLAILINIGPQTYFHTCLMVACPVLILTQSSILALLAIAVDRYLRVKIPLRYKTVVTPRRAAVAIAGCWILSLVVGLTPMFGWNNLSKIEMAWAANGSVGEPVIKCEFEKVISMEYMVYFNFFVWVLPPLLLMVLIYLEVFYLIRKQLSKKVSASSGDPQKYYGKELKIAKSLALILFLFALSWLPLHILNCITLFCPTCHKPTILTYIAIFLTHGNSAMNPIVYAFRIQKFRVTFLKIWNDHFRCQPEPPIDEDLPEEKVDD
- protocolDetails: Adenosine A₁ receptor binding test (³H-CHA binding)
- Parameters: species or system guinea pig
- conditionLabel: 10⁻⁴M, guinea pig cerebrum
Rule: inhibition at 100 µM under 40% gives class 0, otherwise class 1.

*Q* // inclusive: inhibition at 100 µM at least 40%? input: Cn1c(=O)c2c(nc(/C=C/c3ccc4c(c3)OCO4)n2C)n(C)c1=O [Compound 24, (E)-8-(3,4-Methylenedioxystyryl)caffeine]
*A* class 0

*Q* // inclusive: inhibition at 100 µM at least 40%? input: CCn1c(=O)c2[nH]c(/C=C/c3ccc4c(c3)OCCO4)nc2n(CC)c1=O
*A* class 0

*Q* // inclusive: inhibition at 100 µM at least 40%? input: CCn1c(=O)c2[nH]c(/C=C/c3ccc4c(c3)OCO4)nc2n(CC)c1=O
*A* class 0

*Q* // inclusive: inhibition at 100 µM at least 40%? input: COc1ccc(/C=C/c2nc3c(c(=O)n(C)c(=O)n3C)n2C)c(OC)c1OC [Compound 20, (E)-8-(2,3,4-Trimethoxystyryl)caffeine]
*A* class 0

*Q* // inclusive: inhibition at 100 µM at least 40%? input: CCn1c(=O)c2[nH]c(/C=C/c3ccc(OC)c(C)c3C)nc2n(CC)c1=O
*A* class 0

*Q* // inclusive: inhibition at 100 µM at least 40%? input: CCn1c(=O)c2[nH]c(/C=C/c3ccc(OC)c(OC)c3)nc2n(CC)c1=O
*A* class 1

*Q* // inclusive: inhibition at 100 µM at least 40%? input: COc1ccc(/C=C/c2nc3c([nH]2)c(=O)n(C)c(=O)n3C)c(OC)c1OC
*A* class 0

*Q* // inclusive: inhibition at 100 µM at least 40%? input: CCn1c(=O)c2c(nc(/C=C/c3ccc(OC)c(OC)c3OC)n2C)n(CC)c1=O
*A* class 1

*Q* // inclusive: inhibition at 100 µM at least 40%? input: Cn1c(=O)c2[nH]c(/C=C/c3ccc4c(c3)OCO4)nc2n(C)c1=O
*A* class 0

*Q* // inclusive: inhibition at 100 µM at least 40%? input: CCn1c(=O)c2c(nc(/C=C/c3cccc(OC)c3OC)n2C)n(CC)c1=O
*A* class 1

*Q* // inclusive: inhibition at 100 µM at least 40%? input: CCn1c(=O)c2c(nc(/C=C/c3ccc4c(c3)OCO4)n2C)n(CC)c1=O
*A* class 1

*Q* // inclusive: inhibition at 100 µM at least 40%? input: CCn1c(=O)c2c(nc(/C=C/c3ccc(OC)c(C)c3C)n2C)n(CC)c1=O
*A* class 1

*Q* // inclusive: inhibition at 100 µM at least 40%? input: CCn1c(=O)c2c(nc(/C=C/c3ccc4c(c3)OCCO4)n2C)n(CC)c1=O
*A* class 1

*Q* // inclusive: inhibition at 100 µM at least 40%? input: CCn1c(=O)c2[nH]c(/C=C/c3ccc(OC)c(C)c3OC)nc2n(CC)c1=O
*A* class 1

*Q* // inclusive: inhibition at 100 µM at least 40%? input: CCn1c(=O)c2[nH]c(/C=C/c3ccc(OC)c(OC)c3OC)nc2n(CC)c1=O
*A* class 1

*Q* // inclusive: inhibition at 100 µM at least 40%? input: COc1ccc(/C=C/c2nc3c(c(=O)n(C)c(=O)n3C)n2C)c(C)c1C
*A* class 0
